We begin with a simple list: items and their reported max response.
# System: CRL-7250
# method: Cytotoxic Profiling of Annotated Libraries Using Quantitative High-Throughput Screening (AID 1296008); note: % is set by controls: 0 for no effect and ±100 for the full control effect
# condition_description: Five cell lines viability, CellTiter-Glo ATP luminescence, 48-72 h; stronger effect = lower value
Results filed as inconclusive are left out. *1 amine or outer side, *2 acyl side, *3 side chain or, on linkers, in order; H or OH if unused. Where a SMILES comes first, the peptide text is derived from it. [ ]: non-standard residue; d: D form. X13 = O=C(C(CC(O)CO)O[*:1])[*:2]; NMeV = CN[CH](C(=O)O)C(C)C; NMeA = CN[CH](C)C(=O)O; βAla = NCCC(=O)O
Lab book: enter the figure in %, no units written.

Below are worked cases with known answers.
compound: CC(C)[C@@H](C(=O)O)N1Cc2c(cc(O)c3c2O[C@]2(C3)[C@H](C)CCC3C(C)(C)[C@H](O)[C@H](O)C[C@@]32C)C1=O (some centres undefined)
max response (%): 2.63
--
compound: CC1=C[C@H](O)[C@H]2C(C)(C)CCC[C@]2(C)[C@@]1(O)CO
max response (%): -1.57
--
compound: O=C(O)CC1CCC(c2ccc(NC(=O)c3nnc(Nc4ccc(F)c(F)c4)o3)cc2)CC1 (centres undefined)
max response (%): 1.15

Let us examine a further case.
Ask: Find the measured max response of CCC(C)C1NC(=O)C2CCCN2C(=O)C(CC(O)CO)OC(=O)CCNC(=O)C(C)N(C)C(=O)C(C(C)C)N(C)C1=O (centres undefined) (cyclo([X13]PI[NMeV][NMeA][βAla]); configuration not given here) and report it.
Result: -8.24

* * *

# measured_on: Phenylethanolamine N-methyltransferase (Homo sapiens)
# method: Confirmatory Screen for Target Class Profiling of Small Molecule Inhibitors of Methyltransferases (AID 1745852)
# condition_description: MTase-Glo luminescence, SAH detection, recombinant enzyme; measured here: PNMT max response; stronger effect = lower value
measured_endpoint: activity (%)
Lab book: enter the figure in %, no units written.

compound: O=C(/C=C/c1ccccc1)OC[C@H]1O[C@@H](OC(=O)c2cc(O)c(O)c(O)c2)[C@H](O)[C@@H](O)[C@@H]1O
measured_endpoint: activity
measured: -0.813

compound: O=C(O)CCc1ccc(NCc2cccc3c2CCCN3CCOc2ccccc2)cc1F
measured_endpoint: activity
measured: -5.97

compound: COc1cc(/C=C/C(=O)O[C@H]2[C@@H]3C=CO[C@@H](O[C@@H]4O[C@H](CO)[C@@H](O)[C@H](O)[C@H]4O)[C@@H]3[C@@]3(CO)O[C@@H]23)ccc1O
measured_endpoint: activity
measured: -3.15

Ask: Find the measured activity of `O=C(COCC(=O)N1CCN(C(c2ccccc2)c2ccccc2)CC1)Nc1ccc(Cl)cc1C(=O)O` and report it.
Result: -8.81

Ask: Find the measured activity of `C=C[C@H]1[C@H](O[C@@H]2O[C@H](CO)[C@@H](O)[C@H](OC(=O)/C=C/c3ccc(O)c(OC)c3)[C@H]2O)OC=C2C(=O)OCC[C@]21O` and report it.
Result: -4.62

Ask: Find the measured activity of `C/C(=C\CC/C(C)=C/CC[C@]1(C)CCc2cc(O)cc(C)c2O1)CC/C=C(\C)C(=O)O` and report it.
Result: -0.0782

Ask: Find the measured activity of CC1=C2CC3C(CCC3(C)O)C(C)(O)CC2OC1=O (stereo not drawn) and report it.
Result: 0

Ask: Find the measured activity of CC(C)c1cc2c(c(O)c1O)[C@@]13CCCC(C)(C)C1[C@@H](O)[C@@H]2OC3=O (stereo partly drawn) and report it.
Result: -0.254

Source of measurements: PubChem BioAssay (NCATS)
